target: Kelch domain of human Keap1 (residues 321–609) (Homo sapiens, UniProt Q14145); experiment: Isothermal titration calorimetry; assay type: binding; settings: ITC, T = 298.15 K, 50 mM sodium phosphate, 100 mM NaCl, 1 mM DTT, pH 7; Table 1 set
Sequence (Q14145 321-609): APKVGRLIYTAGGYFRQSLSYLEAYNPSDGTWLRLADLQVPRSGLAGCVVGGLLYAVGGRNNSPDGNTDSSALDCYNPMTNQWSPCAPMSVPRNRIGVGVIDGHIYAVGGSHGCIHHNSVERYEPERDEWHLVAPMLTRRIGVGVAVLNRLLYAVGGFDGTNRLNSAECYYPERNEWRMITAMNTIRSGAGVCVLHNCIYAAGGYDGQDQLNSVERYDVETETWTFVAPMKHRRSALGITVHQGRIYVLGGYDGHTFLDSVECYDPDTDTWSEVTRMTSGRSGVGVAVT
observation.type: ΔG (change in Gibbs free energy upon binding) (kcal/mol)

Ac-ANGNAENEENGEQEADNEVD-NH2 [PTMA iso 1] | -6.72

[A] Ac-FAQLQLDPETGEFLPIQPAQ-NH2 [NRF2 site 1 E78P]
[B] Ac-ANGNANEENGEQEADNEVD-NH2 [PTMA iso 2]
Query: Between the entries labelled A and B , which has a larger ΔG (change in Gibbs free energy upon binding) value on record? Reply with the label of the item you choose.
Response: B

====

molecular target: Kelch domain of human Keap1 (residues 321–609) (Homo sapiens, UniProt Q14145); test: Isothermal titration calorimetry; format: binding; conditions: ITC, T = 298.15 K, 50 mM sodium phosphate, 100 mM NaCl, 1 mM DTT, pH 7; Table 1 set
observation.type: TΔS (entropy term upon binding) (kcal/mol)

Here are 3 substances together with their reported answers.
Ac-SLEEPHSPETGEKVVAGEVN-NH2 [WTX] | -9.03
Ac-ANGNANEENGEQEADNEVD-NH2 [PTMA iso 2] | -9.69
Ac-ANGNAENEENGEQEADNEVD-NH2 [PTMA iso 1] | -8.02

[P] Ac-INVRKRNVESGEEELASKLD-NH2 [PGAM5]
[Q] Ac-FAQLQLDPETGEFLPIQPAQ-NH2 [NRF2 site 1 E78P]
Query: Between the entries labelled P and Q , which has a larger TΔS (entropy term upon binding) value on record? Reply with the label of the item you choose.
Response: Q

====

target: Kelch domain of human Keap1 (residues 321–609) (Homo sapiens); test: Isothermal titration calorimetry; format: binding; settings: ITC, T = 298.15 K, 50 mM sodium phosphate, 100 mM NaCl, 1 mM DTT, pH 7; Table 1 set
observation.type: ΔH (change in enthalpy upon binding) (kcal/mol)

Ac-ANGNANEENGEQEADNEVD-NH2 [PTMA iso 2] | -17.29
Ac-ANGNAENEENGEQEADNEVD-NH2 [PTMA iso 1] | -14.74
Ac-INVRKRNVESGEEELASKLD-NH2 [PGAM5] | -19.12
Ac-SLEEPHSPETGEKVVAGEVN-NH2 [WTX] | -18.04
Ac-FAQLQLDPETGEFLPIQPAQ-NH2 [NRF2 site 1 E78P] | -16.76

Hey, just so you know, these numbers are from paper PMC3725505.
